- targetDesc: human CB2 receptors (Homo sapiens (Human), UniProt P34972)
- Sequence (P34972 whole entry): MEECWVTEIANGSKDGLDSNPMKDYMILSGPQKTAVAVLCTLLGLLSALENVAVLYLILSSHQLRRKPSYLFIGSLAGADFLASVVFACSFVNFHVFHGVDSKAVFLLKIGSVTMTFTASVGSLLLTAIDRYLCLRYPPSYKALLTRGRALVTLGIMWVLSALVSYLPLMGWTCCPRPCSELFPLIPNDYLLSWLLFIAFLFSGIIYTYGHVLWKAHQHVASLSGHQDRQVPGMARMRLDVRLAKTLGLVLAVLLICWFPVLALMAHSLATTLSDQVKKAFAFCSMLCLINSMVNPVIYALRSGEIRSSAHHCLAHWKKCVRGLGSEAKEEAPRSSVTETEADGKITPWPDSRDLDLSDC
- methodSummary: cAMP assay, CHO cells expressing human CB2 receptors
- Type: cell-based
- settings: CHO cells expressing human CB2, cAMP; read-out: human CB2 EC50
pEC50: −log10 of the molar value.
Response key: T means pEC50 >= 8; F means pEC50 < 8.

{"compound": "Cc1nc([C@@](C)(NC(=O)c2ccc(C3CC3)c(OCC3CC3)n2)C2CC2)no1", "targetDesc": "human CB2 receptors (Homo sapiens (Human), UniProt P34972)", "classAssignment": "T"}

Textbook exercise: given the entry CC(C)CC(NC(=O)c1ccc(N2CC(F)(F)C2)c(OCC2CC2)n1)c1cccnn1 (centres unmarked) , state whether its pEC50 is greater than or equal to 8.
F

Textbook exercise: given the entry NC(=O)[C@H](CC1CC1)NC(=O)c1ccc(C2CC2)c(OCC2CC2)n1 , state whether its pEC50 is greater than or equal to 8.
F

Textbook exercise: given the entry CCC(CC)(NC(=O)c1ccc(Cl)c(-c2cccc(Cl)c2)n1)C(=O)NC , state whether its pEC50 is greater than or equal to 8.
F

Textbook exercise: given the entry CC(C)(CCS(C)(=O)=O)NC(=O)c1ccc(C2CC2)c(OCC2CC2)n1 , state whether its pEC50 is greater than or equal to 8.
F

###

- targetDesc: human CB2 receptors (Homo sapiens (Human))
- methodSummary: cAMP assay, CHO cells expressing human CB2 receptors
- Assay type: cell-based
- settings: CHO cells expressing human CB2, cAMP; read-out: human CB2 EC50
quantityName: pEC50
Answer as the number alone; pEC50 is minus log10 of concentration in mol/L.

Example entries and their recorded answers appear below.
{"molecule": "O=C(NC1CCCCC1CO)c1cccc(C2CCCCC2)n1 (stereo not drawn)", "testValue": 6.80}
{"molecule": "CC(C)(NC(=O)c1ccc(N2CC(F)(F)C2)c(-c2cccc(Cl)c2)n1)c1nccs1", "testValue": 6.48}

Recall the reported pEC50 of CC(C)C[C@H](NC(=O)c1ccc(C2CC2)c(Oc2ccc(F)cc2)n1)C(N)=O when tested on human CB2 receptors (Homo sapiens (Human)).
7.28

Recall the reported pEC50 of CNC(=O)[C@H](CC(C)C)NC(=O)c1cccc(-c2ccc(F)c(Cl)c2)n1 when tested on human CB2 receptors (Homo sapiens (Human)).
7.87

Recall the reported pEC50 of CNC(=O)[C@H](CC(C)(C)C)NC(=O)c1cccc(Cc2ccc(F)cc2)n1 when tested on human CB2 receptors (Homo sapiens (Human)).
8.09

Recall the reported pEC50 of Cc1ccc(C(=O)NC(C)(C)c2nccs2)nc1-c1cccc(Cl)c1 when tested on human CB2 receptors (Homo sapiens (Human)).
6.88

Recall the reported pEC50 of CC1(C)CCc2ccc(C(=O)NC(C)(C)CO)nc2C1 when tested on human CB2 receptors (Homo sapiens (Human)).
6.54

Recall the reported pEC50 of Cc1ccc(C(=O)N[C@@H](CC(C)C)c2nccs2)nc1OCC1CC1 when tested on human CB2 receptors (Homo sapiens (Human)).
7.72

Recall the reported pEC50 of COC(=O)C(C)(C)NC(=O)c1ccc(C2CCOCC2)c(OCC2CC2)n1 when tested on human CB2 receptors (Homo sapiens (Human)).
7.25

###

- targetDesc: human CB1 receptors (Homo sapiens (Human))
- Sequence (P21554 whole entry): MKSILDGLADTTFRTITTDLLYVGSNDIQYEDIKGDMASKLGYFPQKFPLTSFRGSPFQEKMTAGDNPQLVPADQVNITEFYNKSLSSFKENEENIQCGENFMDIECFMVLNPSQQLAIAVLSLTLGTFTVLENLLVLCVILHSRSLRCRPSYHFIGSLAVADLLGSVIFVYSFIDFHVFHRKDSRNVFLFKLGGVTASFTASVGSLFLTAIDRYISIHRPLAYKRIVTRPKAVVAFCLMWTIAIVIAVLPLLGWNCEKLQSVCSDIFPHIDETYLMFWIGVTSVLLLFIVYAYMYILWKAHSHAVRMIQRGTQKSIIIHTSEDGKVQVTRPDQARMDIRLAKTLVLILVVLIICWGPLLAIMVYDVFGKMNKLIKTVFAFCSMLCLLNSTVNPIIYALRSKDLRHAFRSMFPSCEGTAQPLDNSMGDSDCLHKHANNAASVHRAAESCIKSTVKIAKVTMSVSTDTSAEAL
- methodSummary: cAMP assay, CHO cells expressing human CB1 receptors
- Assay type: cell-based
- settings: CHO cells expressing human CB1, cAMP; read-out: human CB1 EC50
quantityName: EC50

Example entries and their recorded answers appear below.
{"molecule": "Cc1ccc(C(=O)NC(C)(C)c2nccs2)nc1-c1cccc(Cl)c1", "quantityName": "EC50", "testValue": "1.49 µM"}
{"molecule": "CNC(=O)[C@H](CC(C)(C)C)NC(=O)c1ccc(C2CC2)c(OCC2CCCO2)n1 (some centres unmarked)", "quantityName": "EC50", "testValue": "> 10 µM"}
{"molecule": "CC[C@@H](NC(=O)c1ccc(C2CC2)c(OCC2CC2)n1)c1noc(C)n1", "quantityName": "EC50", "testValue": "> 10 µM"}

Give recorded EC50. CC(C)(NC(=O)c1ccc(C2CC2)c(-c2cccc(Cl)c2)n1)c1ncco1
> 10 µM

Give recorded EC50. CC(C)C[C@H](NC(=O)c1ccc(C2CC2)c(OCc2ccccn2)n1)C(N)=O
> 10 µM

Give recorded EC50. CC(C)C[C@H](NC(=O)c1ccc(C2(O)COC2)c(OCC2CC2)n1)C(N)=O
> 10 µM

Give recorded EC50. CCC(CC)(NC(=O)c1ccc(N(CC(F)(F)F)CC(F)(F)F)c(OCC2CC2)n1)C(=O)NC
1.2 µM

Give recorded EC50. O=C(NN1CCCCC1)c1cccc(C2CCOCC2)n1
> 10 µM

Just for reference, patent US9290451B2 is where these values come from.
